Test: qHTS Assay for Identification of Small Molecule Agonists for Hypoxia Response Element Signaling Pathway (AID 914); also: potency is read from the fitted curve at half-maximal effect
Settings: ME-180 (cervical carcinoma) HRE-bla reporter, beta-lactamase ratio, CoCl2, 17 h
Inconclusive results are not listed. Activity calls are given as the source filed them. Calls follow the shape of the dose curve; as a rule, active = well fitted activation curve with a large enough effect in the signal ratio, with a control signal flat (not every such curve was filed as active); inconclusive = small, poorly fitted or top-dose-only effect, or effect the other way, or a change in a side signal; inactive = flat fitted curve, though single readings scatter; the % refers to the signal ratio.
measured-endpoint: Potency

{"smiles": "O=c1c(-c2ccccc2)nc2cnc(N3CCOCC3)nc2n1CCc1ccccc1", "Potency": "3.16 µM (active)"}
{"smiles": "COCCn1c(=O)c(-c2cccs2)nc2cnc(Oc3ccccc3)nc21", "Potency": "3.16 µM (active)"}
{"smiles": "CCCCCCc1cc2cc(C(=O)NC)c(=N)oc2cc1O", "Potency": "3.98 µM (active)"}
{"smiles": "CN1CCN(c2ncc3nc(-c4cccs4)c(=O)n(CCc4ccccc4)c3n2)CC1", "Potency": "3.16 µM (active)"}
{"smiles": "COc1ccc(-c2nc3cnc(N4CCN(C)CC4)nc3n(CCc3ccccc3)c2=O)cc1", "Potency": "3.16 µM (active)"}

Moving on to the next molecule.
INPUT: Answer with the recorded Potency of COc1ccc(-c2nc3cnc(N4CCOCC4)nc3n(-c3ccc(OC)cc3)c2=O)cc1 only.
OUTPUT: 3.16 µM (active)

* * *

Parameter activity: see the listing below.
Biological target: Phenylethanolamine N-methyltransferase (Homo sapiens)
Assay: Confirmatory Screen for Target Class Profiling of Small Molecule Inhibitors of Methyltransferases (AID 1745852)
Details: MTase-Glo luminescence, SAH detection, recombinant enzyme; measured here: PNMT max response; stronger effect = lower value
Give the value in % but do not write % after it.

{"compound": "O=C(CC1CCCC1)N1CCC(Nc2cccnc2)C1 (stereo unspecified)", "measured-endpoint": "activity", "measured-result": -7.86}

INPUT: Answer with the recorded activity of Cc1ccc(Cn2c(=O)c3ccccc3n3c(CCC(=O)NCCCN4CCC(C)CC4)nnc23)cc1 only.
OUTPUT: 0

INPUT: Answer with the recorded activity of FC(F)(F)c1cccc(-c2nccn3c(C4CN(Cc5ccc6cn[nH]c6c5)C4)ncc23)c1 only.
OUTPUT: -2.02

INPUT: Answer with the recorded activity of COc1ccccc1-c1[nH]nc2ncc(C(=O)NCC3CC3)nc12 only.
OUTPUT: -40.5

INPUT: Answer with the recorded activity of COc1cc2c(cc1O)NC(=O)CC2c1cn[nH]c1-c1cc(C)ccc1C (stereo unspecified) only.
OUTPUT: -21.7

INPUT: Answer with the recorded activity of COc1cccc(N2C(=O)c3cc4occc4n3CC2(C)C(=O)NC2CCCCCC2)c1 (stereo unspecified) only.
OUTPUT: -10.9

* * *

Molecular target: Rap guanine nucleotide exchange factor 3 (Homo sapiens) (UniProt O95398)
Sequence (O95398 whole entry, looked up): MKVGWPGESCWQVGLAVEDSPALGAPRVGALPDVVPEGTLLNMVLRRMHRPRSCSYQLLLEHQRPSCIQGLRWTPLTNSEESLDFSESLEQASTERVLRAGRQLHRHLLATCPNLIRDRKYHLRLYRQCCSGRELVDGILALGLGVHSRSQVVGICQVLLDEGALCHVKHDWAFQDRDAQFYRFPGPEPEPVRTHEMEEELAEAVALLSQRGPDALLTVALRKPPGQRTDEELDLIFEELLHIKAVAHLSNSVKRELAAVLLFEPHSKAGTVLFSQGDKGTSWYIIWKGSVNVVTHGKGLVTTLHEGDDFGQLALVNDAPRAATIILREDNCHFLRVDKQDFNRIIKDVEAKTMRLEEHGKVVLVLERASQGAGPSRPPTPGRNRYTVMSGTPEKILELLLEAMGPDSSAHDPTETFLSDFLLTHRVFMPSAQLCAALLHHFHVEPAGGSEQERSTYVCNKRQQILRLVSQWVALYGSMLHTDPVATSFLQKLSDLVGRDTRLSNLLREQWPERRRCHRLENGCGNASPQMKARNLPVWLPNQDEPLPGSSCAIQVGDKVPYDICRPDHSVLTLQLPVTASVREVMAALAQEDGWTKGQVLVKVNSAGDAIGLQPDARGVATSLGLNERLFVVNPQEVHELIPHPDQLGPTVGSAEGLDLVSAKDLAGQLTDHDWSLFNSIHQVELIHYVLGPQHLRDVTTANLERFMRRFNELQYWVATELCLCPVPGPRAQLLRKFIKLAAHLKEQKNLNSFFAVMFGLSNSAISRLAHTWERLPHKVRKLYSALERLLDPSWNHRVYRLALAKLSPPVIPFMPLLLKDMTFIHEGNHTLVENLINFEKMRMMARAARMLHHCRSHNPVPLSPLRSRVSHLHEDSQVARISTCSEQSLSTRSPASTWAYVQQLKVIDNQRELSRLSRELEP
Test: Counterscreen qHTS for antagonist of cAMP-regulated guanine nucleotide exchange factor 3 (EPAC1) (AID 1645888);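 also: fluorescence loss as bound BODIPY-GDP is released from Rap1B; % of control where 0% means no effect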
Details: Rap1B-BODIPY-GDP nucleotide exchange, fluorescence; series mostly up to 154 µM
Results filed as inconclusive are left out. Calls of active or inactive are those of the source. Calls follow the shape of the dose curve; as a rule, active = well fitted inhibition curve with a large enough effect; inconclusive = small, poorly fitted or top-dose-only effect; inactive = no such curve, though single readings can be large or run the other way.
measured-endpoint: activity change, negative = inhibition

Consider the worked cases shown below.
{"compound": "CC(=NNC(=O)c1ccncc1)c1ccc2ccccc2c1O", "target-under-test": "Rap guanine nucleotide exchange factor 3 (Homo sapiens) (UniProt O95398)", "activity change, negative = inhibition": "inactive"}
{"compound": "Cc1ccc(C2CC(c3cccs3)=NN2C(=O)CSc2nc(=O)n3cc(C)ccc3n2)cc1 (stereo unspecified)", "target-under-test": "Rap guanine nucleotide exchange factor 3 (Homo sapiens) (UniProt O95398)", "activity change, negative = inhibition": "inactive"}
{"compound": "CN1CC=C2C(C#N)=C(N)C(C#N)(C#N)[C@H](c3cccc(Cl)c3)C2C1 (stereo partly specified)", "target-under-test": "Rap guanine nucleotide exchange factor 3 (Homo sapiens) (UniProt O95398)", "activity change, negative = inhibition": "inactive"}
{"compound": "Cc1[nH]c2ccc(C(=O)OC(C)C(=O)N(C)c3ccccc3)cc2c1C (stereo unspecified)", "target-under-test": "Rap guanine nucleotide exchange factor 3 (Homo sapiens) (UniProt O95398)", "activity change, negative = inhibition": "inactive"}
{"compound": "O=C(Nc1cccc([N+](=O)[O-])c1)c1ccc2c(c1)C(=O)N(c1ccccn1)C2=O", "target-under-test": "Rap guanine nucleotide exchange factor 3 (Homo sapiens) (UniProt O95398)", "activity change, negative = inhibition": "-7.46% [at 30.8 µM] (inactive)"}

INPUT: Tell me its activity change, negative = inhibition on Rap guanine nucleotide exchange factor 3 (Homo sapiens) (UniProt O95398): CC1(C)[C@@H](O)CC[C@]2(C)C3C(O)C=C4[C@H]5C[C@@](C)(CO)CC[C@]5(C)CC[C@]4(C)[C@]3(C)CC[C@@H]12 (stereo partly specified)
OUTPUT: -3.14% [at 30.8 µM] (inactive)

INPUT: Tell me its activity change, negative = inhibition on Rap guanine nucleotide exchange factor 3 (Homo sapiens) (UniProt O95398): O=C(COc1ccccc1[N+](=O)[O-])Nc1cccc(C(=O)Nc2ccccc2C(=O)O)c1
OUTPUT: inactive

INPUT: Tell me its activity change, negative = inhibition on Rap guanine nucleotide exchange factor 3 (Homo sapiens) (UniProt O95398): O=C(O)CN1C(=O)/C(=C\c2cc(Br)ccc2OCc2ccc([N+](=O)[O-])cc2)SC1=S
OUTPUT: inactive

INPUT: Tell me its activity change, negative = inhibition on Rap guanine nucleotide exchange factor 3 (Homo sapiens) (UniProt O95398): CCC1=Nc2cc(C(=O)NCCCOC)ccc2Sc2ccc(Br)cc21
OUTPUT: inactive

INPUT: Tell me its activity change, negative = inhibition on Rap guanine nucleotide exchange factor 3 (Homo sapiens) (UniProt O95398): Cc1cc(NC(=O)COC(=O)C(C)Oc2ccc(Cl)cc2Cl)no1 (stereo unspecified)
OUTPUT: inactive

INPUT: Tell me its activity change, negative = inhibition on Rap guanine nucleotide exchange factor 3 (Homo sapiens) (UniProt O95398): Cc1nc2c(C(=O)NCCc3ccc(Cl)cc3)c[nH]n2c(=O)c1Cc1ccccc1F
OUTPUT: inactive

INPUT: Tell me its activity change, negative = inhibition on Rap guanine nucleotide exchange factor 3 (Homo sapiens) (UniProt O95398): COc1ccc(/C=N\Nc2ccc([N+](=O)[O-])cc2)c(C(=O)O)c1OC
OUTPUT: inactive

INPUT: Tell me its activity change, negative = inhibition on Rap guanine nucleotide exchange factor 3 (Homo sapiens) (UniProt O95398): Cc1ccc(C)c(Cn2c(C3CC(=O)N(c4ccccc4C)C3)nc3ccccc32)c1 (stereo unspecified)
OUTPUT: inactive
